Molecular target: Estrogen receptor (Homo sapiens)
Experiment: OT_ER_ERaERa_1440: Odyssey Thera (OT) 24-hour HEK293T Protein-Complementation Assay for Estrogen Receptor-alpha/-alpha Homodimer (AID 2283349);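 note: hits raise fluorescence above DMSO for agonists and antagonists alike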
Calls of active or inactive are those of the source. Rule for the calls: active = hit-call score of the fitted dose curve at least 0.9, where 1 is the maximum; inconclusive = response in the unintended direction; inactive = score below 0.9.
Log the outcome using a class from 1 for active, -1 for inactive

*Q* Please share the test call associated with OCC1CCCO1 (configuration not stated) .
*A* -1

*Q* # lookup: test call for CCCCC(CC)COC(=O)c1ccc(N(C)C)cc1 (configuration not stated)
*A* -1

*Q* Hey, what did the test say about "CC(C)Nc1ccc(NC(C)C)c2c1C(=O)c1ccccc1C2=O" ?
*A* -1

*Q* For this molecule, state the assay outcome: "COCCOCCC[Si](C)(O[Si](C)(C)C)O[Si](C)(C)C"
*A* 1

*Q* Identify the outcome logged in this assay for the molecule shown: "O=C(c1ccccc1)c1ccc(O)cc1O"
*A* 1

*Q* Hi, sorry to bother you, what did the test record for "CCCCCCCC/C=C\CCCCCCCC(=O)N(C)CC(=O)O" ?
*A* -1

*Q* Entry "CCN=C1C=CC(=C(c2ccc(N(CC)CC)cc2)c2ccc(N(CC)CC)cc2)c2ccccc21" : call = ?
*A* -1

----------
Assay: ATG_ERE_CIS: Attagene CIS-FACTORIAL HepG2 Assay for Estrogen Response Element (ERE) (AID 2282940)
Conditions: HepG2 ERE cis-reporter, Attagene RNA transcript; actives raise or lower the signal
Calls of active or inactive are those of the source. How the source made its calls: active means hit-call score of the fitted dose curve at least 0.9, where 1 is the maximum; inactive means score below 0.9.
# valid calls are active, inactive; nothing else

Worked examples, 8 compounds total:
> print(dat)
                                   compound  qualitative.label
1               CCC(C)CO (stereo not drawn)           inactive
2              Cc1ccc(O)c(-n2nc3ccccc3n2)c1             active
3                Cc1ccc([N+](=O)[O-])c(C)c1           inactive
4  CN(N=O)C(=O)N[C@@H]1[C@@H](O)[C@H](O)[C@@H](CO)O[C@@H]1O           inactive
5  O=C1C=CC(=O)N1c1ccc(Cc2ccc(N3C(=O)C=CC3=O)cc2)cc1           inactive
6                  CCCCCC/C=C/CCCCCCCC(=O)O           inactive
7            Cc1cc(O)c(C(C)(C)C)cc1C(C)(C)C           inactive
8                             CCc1ccc(C)nc1           inactive

*Q* Which outcome was entered for the compound "CCCC(=O)OCC(COC(=O)CCC)OC(=O)CCC" in this test?
*A* inactive

*Q* How did this test come out for "NC(=O)C(F)(F)C(F)(F)C(F)(F)C(F)(F)C(N)=O" ?
*A* inactive

*Q* # outcome recorded in this test, key = CCC(=O)OC(C)c1ccccc1 (stereo not drawn)
*A* inactive

*Q* What did the test return for "O=C(c1ccccc1)c1ccc(O)cc1O" ?
*A* active

*Q* Lab log entry: "CCCCCCCCCCCCC[N+](C)(C)Cc1ccccc1" — outcome as called in the assay?
*A* inactive

----------
Assay: CCTE_Padilla_ZF_Score.Spine: CCTE's 144 Hour Post-fertilization zebrafish Assay Score for Spine Malformation, Padilla Lab (AID 2284407)
The source made the active and inactive calls. The calls were made as follows: active = hit-call score of the fitted dose curve at least 0.9, where 1 is the maximum; inactive = score below 0.9.
property: outcome

> print(dat)
                           structure.string  property  experimental.result
1              NC(=O)C(F)(F)C(F)(F)C(F)(F)F   outcome             inactive
2  C=CC(=O)OCC(F)(F)C(F)(F)C(F)(F)COC(=O)C=C   outcome             inactive
3            O=C(O)CCC(F)(F)C(F)(F)C(F)(F)F   outcome             inactive
4  O=C(Cl)C(F)(F)C(F)(F)C(F)(F)C(F)(F)C(F)(F)C(F)(F)F   outcome             inactive
5  O=C(O)C(F)(F)C(F)(F)C(F)(F)OC(F)(C(F)(F)F)C(F)(F)F   outcome             inactive

Lab note: next molecule to report on.
Per the records, this molecule ( "O=C(O)C(F)(F)C(F)(F)C(F)(F)C(=O)O" ) has outcome equal to inactive

----------
Biological target: Hepatocyte nuclear factor 3-beta (Homo sapiens) (UniProt Q9Y261)
Sequence (Q9Y261 whole entry, looked up): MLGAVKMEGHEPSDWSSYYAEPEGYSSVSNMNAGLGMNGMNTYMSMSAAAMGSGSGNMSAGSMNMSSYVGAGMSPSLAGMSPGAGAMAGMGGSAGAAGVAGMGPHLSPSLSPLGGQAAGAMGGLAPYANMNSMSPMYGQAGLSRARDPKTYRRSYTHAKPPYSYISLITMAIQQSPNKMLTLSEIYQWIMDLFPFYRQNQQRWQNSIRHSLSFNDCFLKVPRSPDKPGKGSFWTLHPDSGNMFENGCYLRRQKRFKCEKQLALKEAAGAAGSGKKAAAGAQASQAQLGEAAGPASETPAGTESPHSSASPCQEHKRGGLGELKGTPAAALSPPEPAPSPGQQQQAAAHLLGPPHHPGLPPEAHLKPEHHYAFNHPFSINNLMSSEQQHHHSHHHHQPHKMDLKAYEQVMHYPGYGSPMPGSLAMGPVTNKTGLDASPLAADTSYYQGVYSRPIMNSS
Assay: ATG_FoxA2_CIS: Attagene CIS-FACTORIAL HepG2 Assay for human Forkhead box A2 (FOXA2) (AID 2282942)
Details: HepG2 cis-reporter transcription factor activity, 24 h; actives raise or lower the signal
Activity calls are given as the source filed them. The calls were made as follows: active = hit-call score of the fitted dose curve at least 0.9, where 1 is the maximum; inactive = score below 0.9.
Answer with one of the outcomes given here: active, inactive

These solved cases illustrate the format of a correct answer.
> print(dat)
                                   molecule                              assay.target  qualitative.label
1                                CCC/C=C/CO  Hepatocyte nuclear factor 3-beta (Homo sapiens) (UniProt Q9Y261)           inactive
2                     CCn1c2ccccc2c2ccccc21  Hepatocyte nuclear factor 3-beta (Homo sapiens) (UniProt Q9Y261)           inactive
3  CCOC(=O)C1CC(=O)C(=C(O)C2CC2)C(=O)C1 (centres undefined)  Hepatocyte nuclear factor 3-beta (Homo sapiens) (UniProt Q9Y261)           inactive
4  C=CC(=O)OCC(F)(F)C(F)(F)C(F)(F)COC(=O)C=C  Hepatocyte nuclear factor 3-beta (Homo sapiens) (UniProt Q9Y261)           inactive
5                            CN(C)C(C)(C)CO  Hepatocyte nuclear factor 3-beta (Homo sapiens) (UniProt Q9Y261)           inactive
6                            O=c1[nH]cccc1O  Hepatocyte nuclear factor 3-beta (Homo sapiens) (UniProt Q9Y261)           inactive

*Q* Recorded call for "NC(O)(C(F)(F)F)C(F)(F)F" ?
*A* inactive

*Q* // outcome(item) with item = "COC(=O)c1ccc(C=O)cc1"
*A* inactive

*Q* Fill in: this test's call for "CCCCCC/C=C/CCCCCCCC(=O)O" is ___
*A* inactive

----------
Assay: CEETOX_H295R_PROG: CeeTox H295R High-throughput Steroidogenesis Assay for Progesterone (PROG) (AID 2283442);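 for AC50: human H295R adrenal cells primed with 10 µM forskolin before dosing; progesterone secreted into medium by H295R cells measured by HPLC-MS/MS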
Conditions: actives raise or lower the signal
Calls of active or inactive are those of the source. The calls were made as follows: active = hit-call score of the fitted dose curve at least 0.9, where 1 is the maximum; inactive = score below 0.9.
property: AC50

> print(dat)
                                   molecule  experimental.result
1            O=C1c2ccccc2C(=O)c2c(Cl)cccc21             inactive
2  CCCCC(CC)COC(=O)c1ccc(N(C)C)cc1 (stereo not given)     6010 nM (active)
3          CCCCCCCCCCCCC[N+](C)(C)Cc1ccccc1      159 nM (active)
4                           CN1CN(C)CN(C)C1             inactive
5                                 CC1CCCCC1             inactive

Attention now shifts to the item below.
Documented AC50 of "O=c1[nH]cccc1O" : inactive

----------
Assay: ATG_M_19_CIS: Attagene CIS-FACTORIAL HepG2 Assay for M19 Transcription Factor (Internal Marker) (AID 2282939)
Conditions: HepG2 Attagene CIS-FACTORIAL M19 internal marker reporter; actives raise or lower the signal
Activity calls are given as the source filed them. The calls were made as follows: active = hit-call score of the fitted dose curve at least 0.9, where 1 is the maximum; inactive = score below 0.9.
Respond only with the outcome that fits, drawn from yes (1) for active, no (0) for inactive

> print(dat)
                           structure.string  qualitative.label
1  C=CC(=O)OCC(F)(F)C(F)(F)C(F)(F)C(F)(F)C(F)(F)C(F)(F)C(F)(F)C(F)F             no (0)
2   C=C(C)C(=O)OCC(F)(F)C(F)(F)C(F)(F)C(F)F             no (0)

*Q* // return assay outcome for "CC(C)OC=O"
*A* no (0)

*Q* Field: outcome | Entry: "CCCCCCCCCc1ccc(OCCO)cc1"
*A* yes (1)

*Q* Write down the call the test reported for this compound. Item: "Brc1ccccn1"
*A* no (0)

*Q* # outcome recorded in this test, key = "O=C(c1ccccc1)c1ccc(O)cc1O"
*A* no (0)

*Q* Called result for "C=CC(=O)OCCC(F)(F)C(F)(F)C(F)(F)C(F)(F)F"
*A* no (0)

----------
Read-out: Collagen III, COL3A1 (gene 1281)
Assay: BSK_hDFCGF_CollagenIII: BioMAP Diversity Plus: hDFCGF Assay for Collagen III Biomarker Activity (AID 2283056)
Settings: primary human foreskin fibroblasts; actives raise or lower the signal
Procedure: BSK_hDFCGF is a cell-based, multiplexed-readout assay that uses foreskin fibroblast, a human skin primary cell, with measurements taken at 24 hours after chemical dosing in a 96-well plate.BSK_hDFCGF_CollagenIII is an assay component measured in the BSK_hDFCGF assay. It measures Collagen antibody related to regulation of gene expression using ELISA technology.Data from the assay component BSK_hDFCGF_CollagenIII was analyzed into 1 assay endpoint. […]
Calls of active or inactive are those of the source. Rule for the calls: active = hit-call score of the fitted dose curve at least 0.9, where 1 is the maximum; inactive = score below 0.9.
Answer with one of the outcomes given here: active, inactive

Use these answered entries as a reference point.
> print(dat)
                                    compound  qualitative.label
 1  O=S(=O)(OCC(F)(F)F)C(F)(F)C(F)(F)C(F)(F)C(F)(F)F           inactive
 2            O=C(O)CCC(F)(F)C(F)(F)C(F)(F)F           inactive
 3  CO[Si](C)(CCC(F)(F)C(F)(F)C(F)(F)C(F)(F)C(F)(F)C(F)(F)F)OC           inactive
 4  CCN(CC)c1ccc2c(c1)Oc1cc(N(CC)CC)ccc1C21OC(=O)c2ccccc21             active
 5                O=C=Nc1cccc2c(N=C=O)cccc12           inactive
 6                           Brc1nc2ccccc2s1           inactive
 7                 Cc1cc(C)c(O)c(C(C)(C)C)c1             active
 8  OCC(O)CC(F)(F)C(F)(F)C(F)(F)C(F)(F)C(F)(F)C(F)(F)C(F)(F)C(F)(F)F (stereo not given)           inactive
 9                      OC(O)C(F)(F)C(F)(F)F           inactive
10  COC(F)(C(F)F)C(F)(F)F (stereo not given)           inactive

*Q* Tell me the assay call for "CCOC(=O)CC(=O)C(F)(F)C(F)(F)F" please.
*A* inactive

*Q* Which outcome did this test record for the compound "Nc1cc([N+](=O)[O-])cc(Cl)c1O" ?
*A* inactive

*Q* Record lookup: outcome of this test for "C=CC(=O)OCC(F)(F)C(F)(F)C(F)(F)C(F)(F)C(F)(F)C(F)(F)C(F)(F)C(F)F" ?
*A* inactive

*Q* Would you mind telling me which call this test gave "O=C(O)CCC(F)(F)C(F)(F)C(F)(F)C(F)(F)C(F)(F)C(F)(F)C(F)(F)F" ?
*A* inactive

*Q* Per the records of this test, what outcome belongs to "CCN(CC)c1ccc(N=Nc2ccccc2)cc1" ?
*A* active

*Q* Dear all, I need the recorded test outcome for "O=C(F)C1(F)C(F)(F)C(F)(F)C(F)(F)C(F)(F)C1(F)F" , thank you.
*A* inactive

*Q* Could you check what this test reported for "NC(=O)C(F)(F)C(F)(F)C(F)(F)F" ?
*A* inactive

*Q* Called result for CC(C)CCCC(C)CCO (stereo not given)
*A* inactive

*Q* Given "O=C(O)C(F)(F)OC(F)(F)C(F)(F)OC(F)(F)C(F)(F)OC(F)(F)F" , state the outcome it received in this test.
*A* inactive

*Q* What did this assay record as the result for "O=C(Cl)C(F)(F)C(F)(F)C(F)(F)C(F)(F)C(F)(F)C(F)(F)C(F)(F)F" ?
*A* inactive

// provenance: PubChem BioAssay (EPA / NIEHS)
